measurement-protocol: protein stability index of a GFP-peptide fusion (GPS, HEK-293T) (PSI 1-6); higher = more stable;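 note: 24-mer peptide tiles fused after GFP, lentivirally expressed, FACS-sorted into six equal bins by GFP/DsRed ratio, decoded by Illumina sequencing, PSI is the read-weighted mean bin number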
protocol-conditions: treatment: MLN4924 1 uM, 8 h; c terminus: a fixed tail appended
Below, each entry is listed with its recorded protein stability index.
Reply with the value as a number alone.

These solved cases illustrate the format of a correct answer.
VEPGTPPLDILAQPLEASNPALEG [DNAAF3] : 5.36
GQIIKDIDSGSPAEEAGLKNNDLV [PDZK1] : 5.27
IRQYRLKKISKEEKTPGCVKIKKC [KRAS] : 3.31
TLEQILEHLDNLRLNLTNTKQNFF [INTS3] : 2.31
KQLEPLVAPLADGKVAVGQDDLTV [VPS39] : 5.18

Q: Request the reported protein stability index associated with EEIDVDGKFIRLKNTSEQDQPMGG [LMNB1]
A: 5.47

Q: What would you report for YGHPAGIDYKTTTILLDGRRVKLQ [RAB40B] ?
A: 3.14

Q: What would you report for HGSGSHPGPASGPGPDTGPDSELS [SPAG8] ?
A: 5.37

Q: What would you report for CHPVERGIKSKEAEEYRLKEHYLT [PSD2] ?
A: 4.1

Q: What would you report for EFIRDILIHPELNEGLMKWENRHE [ELF3] ?
A: 2.3

Q: What would you report for LLDSMCPASTPSVLSSEQEFQMFP [ETS2] ?
A: 4.07

Q: What would you report for QVVTVHLQTSLENGTRVQEEPELV [FKBP8] ?
A: 4.37

Q: What would you report for PPRREPLPSRRDVYLSPRDDGYST [RBMX] ?
A: 4.23

Q: What would you report for LKNGSMGSPVNQQPKKNNVMARTR [FAM219A] ?
A: 4.13

Q: What would you report for DDLTSVTNHGYRVQVENPERFSSA [TRIM35] ?
A: 4.59

Q: What would you report for TKTEDRELVLRKDCPKIVEPHGKM [ZSCAN9] ?
A: 4.72

Q: What would you report for SQEESEEGEEDATSEVDKRRTRPR [CHGB] ?
A: 5.59

Q: What would you report for SSDSVGGFRYSERYDPEPKSKWDE [CLINT1] ?
A: 4.95

Q: What would you report for TVQDYQDLIDRGWRRSGKYVYKPV [ATE1] ?
A: 3.03

Q: What would you report for SVILSVKFSPFGQWWASVGMDDFL [TLE6] ?
A: 3.02

Q: What would you report for TVAGIVGSSYGILQLFSSTLVGCW [MFSD9] ?
A: 2.89

Q: What would you report for APLVQPSKNDNGKPDSVGLPPCAV [PCMTD1] ?
A: 5.07

====

measurement-protocol: protein stability index of a GFP-peptide fusion (GPS, HEK-293T) (PSI 1-6); higher = more stable
protocol-conditions: treatment: DMSO; c terminus: a fixed tail appended
readout-type: protein stability index
Reply with the value as a number alone.

These solved cases illustrate the format of a correct answer.
QIVQLTQQVDTNISVILPTVHEVD [DENND6A] : 3.07
RQILHLITMMALKVLGELNILPNT [TENT5D] : 3.42
RSSSCGDTELLGQATLPVGSPSRP [C2CD2L] : 5.04
ANSDRASIGRRRTELRRSGSSRSP [PLEKHN1] : 4.79
AGDVIFLLSRINKDWLEGTVRGAT [NCF4] : 3.21
VPWSQCLQNFLLHGTKNVTNSSSL [WSB1] : 2.19
DEDDSEELEEDDGHGAEQAAAFPT [EHMT1] : 5.58
YYVLEPRVVDGTPCSPDSSSVCVQ [ADAMTS4] : 3.33

Q: Request the reported protein stability index associated with KHSTFGQSLTQRLHALKLRSPDAS [GNAS]
A: 3.37

Q: What would you report for QVESRWGYSGTSDRIRFTVNRRIS [BTBD1] ?
A: 3.38

Q: What would you report for SSTLNPSTSSSTQGDPAFPEMNGN [NOL4L] ?
A: 5.44

====

measurement-protocol: protein stability index of a GFP-peptide fusion (GPS, HEK-293T) (PSI 1-6); higher = more stable
protocol-conditions: treatment: MLN4924 1 uM, 8 h; c terminus: a fixed tail appended
Entry flag: MET if protein stability index reaches 4; NOT MET if it does not.

Before answering, review these 3 worked examples.
PLSSQPQAIVTEDKTDISSGRARQ [MLH1] : MET
WKDLTLSTRPEEGCSLHEEDTQRH [TCAP] : MET
KHSTFGQSLTQRLHALKLRSPDAS [GNAS] : NOT MET

Q: Answer whether protein stability index of HAPGVPKILVGNRLHLAFKRQVPT [RAB40B] is greater than or equal to 4.
A: NOT MET

Q: What would you report for SSWPFSIQDVVQPLTLQVQRPLVS [AUP1] ?
A: NOT MET

Q: What would you report for FTLKEEKPKMYFMTMIVSLAAVAW [ARL6IP1] ?
A: NOT MET

====

measurement-protocol: protein stability index of a GFP-peptide fusion (GPS, HEK-293T) (PSI 1-6); higher = more stable
protocol-conditions: treatment: DMSO; c terminus: a fixed tail appended
Below, each entry is listed with its recorded protein stability index.
Reply with the value as a number alone.

PKVSDQALVSAHSEWQRKLEAAEA [DMRTC1] : 4.54
NLQPPASLQTGNHSNGPTDLSMKG [NOL4L] : 4.66
RIFTFICKDSESNKHLCYVFDSEK [GULP1] : 2.06
DQLNDGQDFAKDLLKTLYNSIKNE [PSD2] : 3.56
TFVNVYIASFIRGPNPSKLIQQFL [CDS2] : 2.4
TTLEIHNTEERQKRQVTHFQFLSW [PTPN9] : 2.28
LQRNPKHELTAKYLNYYQGMLDVA [P3H4] : 2.3
DRARRFEEALRKNTEEQLEIALAP [MTUS2] : 4.9
MCKADLSRNFIERNHMENGGDHRY [TRIM29] : 3.41
RPRYKADVPDLQSVCSCTCYRSQD [KCNK9] : 3.34

Q: Request the reported protein stability index associated with GSKSQRYSGAYGASVSDEELKRRV [CHCHD3]
A: 4.99

Q: What would you report for LMMCFILPTLVPWYFWGETFQNSV [SCD] ?
A: 2.94

Q: What would you report for ETQLKACASFIRTRLLLQFTQPQQ [C8orf76] ?
A: 2.93

Q: What would you report for ADFGSATFDHEHHTTIVATRHYRP [CLK3] ?
A: 3.79

Q: What would you report for KNDSLRKRYDGLKYDVKKVEEVVY [TSN] ?
A: 3.18

Q: What would you report for DDIKESLESEGKNSKKEEPQELLQ [ATE1] ?
A: 5.65

====

Below, each entry is listed with its recorded protein stability index.
measurement-protocol: protein stability index of a GFP-peptide fusion (GPS, HEK-293T) (PSI 1-6); higher = more stable
protocol-conditions: treatment: MLN4924 1 uM, 8 h; c terminus: a fixed tail appended
Reply with the value as a number alone.

These solved cases illustrate the format of a correct answer.
MDLSERQEVSSVRSLSSTGSLPSH [DLC1] : 4.47
MSPESYLGSPQHSPSTRGSPNRSL [ATF4] : 4.91
VIKENDPSGFLQISDALIRRVHLT [TRIM9] : 2.39

Q: Request the reported protein stability index associated with MQVLGPEDLQSIIYKLEEHEEFFP [CEP70]
A: 3.41

Q: What would you report for SLIFSLKNEVGGLIKALKIFQEKH [TPH1] ?
A: 2.75

Q: What would you report for LASHLPVGVMLPHNTTEAPGPHSA [ZC2HC1C] ?
A: 4.17

Q: What would you report for DVRQNPCGSKACRRLFGPVDSEQL [CDKN1A] ?
A: 3.12

Q: What would you report for DQLNDGQDFAKDLLKTLYNSIKNE [PSD2] ?
A: 3.71

====

measurement-protocol: protein stability index of a GFP-peptide fusion (GPS, HEK-293T) (PSI 1-6); higher = more stable
protocol-conditions: treatment: MLN4924 1 uM, 8 h; c terminus: a fixed tail appended
readout-type: protein stability index
Reply with the value as a number alone.

WGPLQDSLEHTLRVAIAHYQDDPD [TSPAN10] : 3.69
IAAAVYIMDTVGNIWVCYASYVVF [SLC19A2] : 2.87
FSALYWFNYELVKSWLNGFRPKDQ [SLC25A39] : 2.61

Q: Request the reported protein stability index associated with CRLAKGENGYGFHLNAIRGLPGSF [PDZK1]
A: 2.07

Q: What would you report for KRFQLTKLPPYLIFCIKRFTKNNF [USP39] ?
A: 2.78

Q: What would you report for TDFKDKIVLDVGCGSGILSFFAAQ [CARM1] ?
A: 2.27

Q: What would you report for NGTMTIDWNEWRDYHLLHPVENIP [SLC25A25] ?
A: 3.07

Q: What would you report for QIRDWRGGRLENQKPRGLEGGVLR [ZSWIM9] ?
A: 3.57

Q: What would you report for SHPRVQSGCDKEALLTGGGSENRN [RNF180] ?
A: 4.65
